Every entry's value here was drawn from patent US20240246964A1.

Some compounds, each annotated with its measured IC50.
biological target: PD-L1 His protein / PD-1 Fc protein (Homo sapiens (Human), UniProt Q9NZQ7); assay: HTRF Assay (PD-1/PD-L1 interaction); assay type: binding; settings: PD-L1 His 6 nM, PD-1 Fc 6 nM
Sequence (Q9NZQ7 19-238): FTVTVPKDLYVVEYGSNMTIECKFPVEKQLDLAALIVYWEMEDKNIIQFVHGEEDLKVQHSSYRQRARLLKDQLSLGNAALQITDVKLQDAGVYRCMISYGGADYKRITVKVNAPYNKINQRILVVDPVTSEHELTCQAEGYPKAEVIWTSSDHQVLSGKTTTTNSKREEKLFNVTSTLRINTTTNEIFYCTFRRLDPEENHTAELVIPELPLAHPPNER
Output should be the measured figure followed by the unit it is expressed in.

COCCC(=O)N1CC2(CN(Cc3ccc(-c4nccc(-c5cccc(-c6ccc(CN7CC8(C7)CN(C(=O)CCOC)C8)c(OC)n6)c5Cl)c4Cl)cc3OC)C2)C1 = 0.16 nM
COc1cc(-c2ncnc(-c3cccc(NC(=O)c4cn(C)c(=O)n(C)c4=O)c3Cl)c2Cl)ccc1CNC[C@H](C)O = 1.29 nM

Read the next record carefully.
Input: Which IC50 reading was recorded for the compound `COc1cc(-c2nccc(-c3cccc(-c4ccc5c(CNC6CCN(C(C)=O)CC6)cn(C)c5n4)c3Cl)c2Cl)ccc1CNCCO` ?
Output: 1.66 nM
